# collection of IC50 values tested on Coagulation factor XI (Homo sapiens, UniProt P03951)
# Sequence (P03951 19-387 limits assumed): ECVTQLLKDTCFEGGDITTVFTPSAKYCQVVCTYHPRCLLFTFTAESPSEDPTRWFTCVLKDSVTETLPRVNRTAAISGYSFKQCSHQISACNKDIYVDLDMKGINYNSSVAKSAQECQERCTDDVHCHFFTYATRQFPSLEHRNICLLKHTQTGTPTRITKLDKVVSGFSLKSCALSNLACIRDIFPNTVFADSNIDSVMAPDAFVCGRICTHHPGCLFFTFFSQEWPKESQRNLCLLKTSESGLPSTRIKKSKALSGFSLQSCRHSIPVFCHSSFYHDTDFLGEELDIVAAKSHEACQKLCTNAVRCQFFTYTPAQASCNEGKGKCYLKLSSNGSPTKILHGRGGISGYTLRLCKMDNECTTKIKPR
# Sequence (P03951 388-625 limits assumed): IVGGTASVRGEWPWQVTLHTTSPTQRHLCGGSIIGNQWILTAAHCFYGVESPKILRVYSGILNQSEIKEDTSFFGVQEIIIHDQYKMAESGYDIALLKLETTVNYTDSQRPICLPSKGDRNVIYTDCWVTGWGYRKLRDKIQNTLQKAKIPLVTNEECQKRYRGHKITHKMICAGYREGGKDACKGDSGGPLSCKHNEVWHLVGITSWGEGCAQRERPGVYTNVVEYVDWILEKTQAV

Known IC50 results, listed for orientation:
CC(C)[C@H](NC(=O)N[C@@H]1C[C@@H]2C[C@H]([C@H]1C)C2(C)C)C(=O)N[C@@H](CCCN=C(N)N)C(=O)c1nccs1
713 nM
NC(N)=NCCC[C@H](NC(=O)Cc1cccc2ccccc12)C(=O)c1nccs1
> 250000 nM

Prompt line: What IC50 value was documented for this molecule, N=C(N)NCCC[C@H](NC(=O)c1ccc2ccccc2c1)C(=O)c1nccs1 ?
Response line: > 200000 nM

Prompt line: Here is the next molecule: N=C(N)NCCC[C@H](NS(=O)(=O)c1ccc2ccccc2c1)C(=O)c1nccs1
Response line: 86000 nM

Prompt line: Here is the next molecule: CC(C)[C@H](NC(=O)[C@H](O)c1cccc(F)c1)C(=O)N[C@@H](CCCN=C(N)N)C(=O)c1nccs1
Response line: 956 nM

Prompt line: Here is the next molecule: CC(C)[C@H](NC(=O)[C@H](O)c1cccc(Cl)c1)C(=O)N[C@@H](CCCN=C(N)N)C(=O)c1nccs1
Response line: 116 nM

Measured values drawn from ChEMBL document CHEMBL1148656 for this set.
